system: HAOSMC (human aortic smooth muscle cell); assay: Cell proliferation inhibition test against normal cells HAOSMC; assay type: cell-based; settings: Homo sapiens, 72 h, read-out: IC50 HAOSMC
READOUT TYPE: pIC50
Note on pIC50: it is the negative log10 of concentration, concentration in mol/L.

Given COc1cc2nccc(Oc3ccc(NC(=S)NC(=O)Cc4ccccc4)cc3F)c2cc1OC [Comp. Ex. 1, reference compound] , respond with its pIC50. 4.62

* * *

target: c-Met (Homo sapiens); test: c-Met inhibitory assay using DeskTop Profiler (Method B); type: biochemical; set-up: made in house; details: ATP 43 μM
Sequence (P08581 25-1390): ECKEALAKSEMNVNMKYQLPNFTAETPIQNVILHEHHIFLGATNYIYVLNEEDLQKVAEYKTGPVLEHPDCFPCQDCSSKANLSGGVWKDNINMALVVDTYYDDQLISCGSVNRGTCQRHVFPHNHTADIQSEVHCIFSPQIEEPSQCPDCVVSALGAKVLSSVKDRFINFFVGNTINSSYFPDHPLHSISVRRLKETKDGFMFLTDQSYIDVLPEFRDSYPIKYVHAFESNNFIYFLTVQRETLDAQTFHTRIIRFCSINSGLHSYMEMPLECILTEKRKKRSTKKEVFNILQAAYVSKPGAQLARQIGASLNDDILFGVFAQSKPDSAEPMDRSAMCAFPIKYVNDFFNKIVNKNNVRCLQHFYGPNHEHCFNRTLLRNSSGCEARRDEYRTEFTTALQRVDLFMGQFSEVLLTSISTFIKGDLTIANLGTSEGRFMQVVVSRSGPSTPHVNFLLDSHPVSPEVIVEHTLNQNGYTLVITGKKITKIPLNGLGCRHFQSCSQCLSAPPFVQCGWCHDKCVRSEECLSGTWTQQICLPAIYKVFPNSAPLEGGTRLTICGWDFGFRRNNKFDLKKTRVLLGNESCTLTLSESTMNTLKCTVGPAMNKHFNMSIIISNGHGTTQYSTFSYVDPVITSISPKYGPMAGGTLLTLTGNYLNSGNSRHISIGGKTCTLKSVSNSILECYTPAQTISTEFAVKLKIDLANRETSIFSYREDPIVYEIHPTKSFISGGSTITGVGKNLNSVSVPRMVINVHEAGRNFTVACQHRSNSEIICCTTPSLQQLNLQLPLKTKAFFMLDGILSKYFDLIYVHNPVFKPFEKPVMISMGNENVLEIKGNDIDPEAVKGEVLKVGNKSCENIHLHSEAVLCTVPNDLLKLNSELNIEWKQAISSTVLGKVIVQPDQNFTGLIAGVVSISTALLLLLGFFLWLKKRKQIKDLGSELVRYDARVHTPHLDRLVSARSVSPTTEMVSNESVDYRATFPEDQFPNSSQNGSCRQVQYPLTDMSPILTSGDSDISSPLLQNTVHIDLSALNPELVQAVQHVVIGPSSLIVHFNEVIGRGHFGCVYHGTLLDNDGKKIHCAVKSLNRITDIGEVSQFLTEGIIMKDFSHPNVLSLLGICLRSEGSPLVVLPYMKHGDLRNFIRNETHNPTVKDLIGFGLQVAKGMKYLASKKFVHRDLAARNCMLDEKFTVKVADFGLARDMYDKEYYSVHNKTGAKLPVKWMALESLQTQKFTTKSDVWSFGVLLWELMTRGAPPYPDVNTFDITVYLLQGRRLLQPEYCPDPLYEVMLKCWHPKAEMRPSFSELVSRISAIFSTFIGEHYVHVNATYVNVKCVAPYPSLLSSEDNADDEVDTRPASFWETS
For each record, write down the corresponding IC50.
Only the number, expressed in nM, is required.

For CC[C@@H](CO)NC(=O)c1cc2c(Oc3ccc(NC(=S)NC(=O)Cc4ccc(F)cc4)cc3F)ccnc2cc1OC [Example 38] , write its IC50. 32

Supply measured IC50 of COc1cc2nccc(Oc3ccc(NC(=S)NC(=O)Cc4c(F)cccc4F)cc3F)c2cc1C(=O)NCCN1CCOCC1 [Example 44] in your reply. 101

Recall and state the measured IC50 for CC[C@@H](CO)NC(=O)c1cc2c(Oc3ccc(NC(=S)NC(=O)Cc4ccccc4F)cc3F)ccnc2cc1OC [Example 40] . 27

# return recorded IC50 for entry CC[C@@H](CO)NC(=O)c1cc2c(Oc3ccc(NC(=S)NC(=O)Cc4cccc(F)c4)cc3F)ccnc2cc1OC [Example 41] 34
